Test system: OVCAR-3
METHOD: OVCAR3 CTG assay
Assay type: cell-based
MEASUREMENT SETUP: Homo sapiens, OVCAR-3, 144 h; CellTiter-Glo, 6 days incubation
pIC50: −log10 of the molar value.
Catalogue of compounds with associated pIC50

# annotated cases, reported pIC50 shown
[
  {
    "COMPOUND": "O=C1Nc2cccc(n2)OCCCOCC2CCN(CC2)c2cc(NS(=O)(=O)CCO)ccc21 [EX11]",
    "pIC50": "6.00 to 7.00"
  },
  {
    "COMPOUND": "O=C1Nc2cccc(n2)N(C2CC2)CCCOCC2(C(F)(F)F)CCN(CC2)c2cc(NS(=O)(=O)CCO)ccc21 [EX71]",
    "pIC50": "7.00 to 8.00"
  },
  {
    "COMPOUND": "Cc1cc2nc(n1)NCCCCOC1(C)CCN(CC1)c1cc(NS(=O)(=O)CCO)ccc1C(=O)N2 [EX18]",
    "pIC50": "6.00 to 7.00"
  },
  {
    "COMPOUND": "Cc1cc2nc(n1)N1CCO[C@H](COCC3(C(F)(F)F)CCN(CC3)c3cc(NS(=O)(=O)CCO)ccc3C(=O)N2)C1 [EX96-A]",
    "pIC50": "> 8.00"
  },
  {
    "COMPOUND": "CN1CCCOCC2(C(F)(F)F)CCN(CC2)c2cc(NS(=O)(=O)CCO)ccc2C(=O)Nc2cncc1n2 [EX75]",
    "pIC50": "6.00 to 7.00"
  },
  {
    "COMPOUND": "Cc1cc2nc(n1)N1CCO[C@@H](COCC3(C(F)(F)F)CCN(CC3)c3cc(NS(=O)(=O)CCO)ccc3C(=O)N2)C1 (stereo in doubt) [EX96-B]",
    "pIC50": "7.00 to 8.00"
  },
  {
    "COMPOUND": "Cc1cc2nc(n1)NCC(C)COCC1(C)CCN(CC1)c1cc(NS(=O)(=O)CCO)ccc1C(=O)N2 (centres unmarked) [EX19]",
    "pIC50": "> 8.00"
  },
  {
    "COMPOUND": "CN1CCCOCC2(C(F)F)CCN(CC2)c2cc(NS(=O)(=O)CCO)ccc2C(=O)Nc2cccc1n2 [EX110]",
    "pIC50": "7.00 to 8.00"
  }
]

Prompt: Kindly state the measured pIC50 obtained for O=C1Nc2ccnc(n2)N2CCO[C@H](COCC3(C(F)(F)F)CCN(CC3)c3cc(NS(=O)(=O)CCO)ccc31)C2 [EX93-A] with OVCAR-3.
Response: > 8.00

Prompt: Item O=C1Nc2cccc(n2)NC/C=C\COCC2(C(F)(F)F)CCN(CC2)c2cc(NS(=O)(=O)CCO)ccc21 [EX66] with OVCAR-3 - pIC50?
Response: 7.00 to 8.00

Prompt: I'm curious: which pIC50 was measured for Cc1cc2nc(n1)N(C)CCCOCC1(C)CCN(CC1)c1cc(S(=O)(=O)NC(C)(C)C)ccc1C(=O)N2 [EX15] tested on OVCAR-3?
Response: 6.00 to 7.00

Prompt: Record CN1CCCOCC2(C(F)F)CCN(CC2)c2cc(NS(=O)(=O)CCO)ccc2C(=O)Nc2ccnc1n2 [EX95] : what is its pIC50 with OVCAR-3?
Response: 7.00 to 8.00
